# Measurement Target: Carbonic anhydrase 9 (Homo sapiens, UniProt Q16790)
# Protocol Notes: Binding affinity to recombinant human CA9 by DSF-based fluorescence thermal shift assay
Readout Type: pKd
Scale explanation: pKd corresponds to minus log10 of a concentration expressed in moles per litre.

In the examples that follow, each entry is paired with its recorded pKd.
Cc1cc(S(N)(=O)=O)c(C)cc1N1CC(C(=O)O)CC1=O (stereo not given) = 5.59
NNC(=O)C1CC(=O)N(c2ccc(S(N)(=O)=O)cc2)C1 (stereo not given) = 6.20
NS(=O)(=O)c1ccc(N2CC(C(=O)N/N=C/c3ccccc3)CC2=O)cc1 (stereo not given) = 7.23
NS(=O)(=O)c1ccc(NC(=O)C2CC(=O)N(c3cccc(Br)c3)C2)cc1 (stereo not given) = 7.25

The record that follows has no pKd shown yet.
## Input Dear colleague, I am looking for the recorded pKd of the following molecule: Cc1cc(N2CC(C(=O)N/N=C/c3ccccc3)CC2=O)c(Cl)c(C)c1S(N)(=O)=O (stereo not given)
## Output 7.00

----------
Recorded Kd, one value per entry.
# Measurement Target: UniProt:P22748
# Sequence (P22748 whole entry): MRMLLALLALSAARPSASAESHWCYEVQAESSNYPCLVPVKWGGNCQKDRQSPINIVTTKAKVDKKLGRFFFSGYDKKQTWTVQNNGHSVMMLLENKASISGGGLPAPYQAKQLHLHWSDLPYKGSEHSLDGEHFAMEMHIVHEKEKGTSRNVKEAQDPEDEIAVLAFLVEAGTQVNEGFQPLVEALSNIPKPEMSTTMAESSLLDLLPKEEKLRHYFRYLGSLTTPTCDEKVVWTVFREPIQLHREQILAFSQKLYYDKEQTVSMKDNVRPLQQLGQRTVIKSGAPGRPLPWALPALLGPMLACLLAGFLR
# Protocol Notes: Binding affinity to recombinant human CA4 by DSF-based fluorescence thermal shift assay
Answer in µM, number only, no unit symbol.

Field: example entries. Status: answers known.
Cc1cc(N2CC(C(=O)NN)CC2=O)cc(C)c1S(N)(=O)=O (stereo not given) = 9.1
Cc1cc(NCC(CC(=O)O)c2n[nH]c(=S)n2-c2ccccc2)c(Cl)c(C)c1S(N)(=O)=O (stereo not given) = 10
Cc1cc(N2CC(C(=O)N/N=C/c3ccccc3)CC2=O)cc(C)c1S(N)(=O)=O (stereo not given) = 5

## Input Look up Kd: Cc1cc(N2CC(c3n[nH]c(=S)n3-c3ccccc3)CC2=O)cc(C)c1S(N)(=O)=O (stereo not given)
## Output 7

----------
Entries and their pKd
# Measurement Target: Carbonic anhydrase 14 (Homo sapiens, UniProt Q9ULX7)
# Sequence (Q9ULX7 whole entry, the tested form may be a part): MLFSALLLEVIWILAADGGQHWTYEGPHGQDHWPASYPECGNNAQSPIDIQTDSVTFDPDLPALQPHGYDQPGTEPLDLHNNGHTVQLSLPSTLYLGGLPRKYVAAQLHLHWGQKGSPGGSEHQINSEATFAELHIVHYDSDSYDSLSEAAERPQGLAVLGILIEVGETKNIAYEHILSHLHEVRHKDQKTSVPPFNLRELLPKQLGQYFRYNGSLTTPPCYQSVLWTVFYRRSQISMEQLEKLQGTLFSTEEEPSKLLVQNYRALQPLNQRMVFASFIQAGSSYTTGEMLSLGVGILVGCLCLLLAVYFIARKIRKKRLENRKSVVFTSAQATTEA
# Protocol Notes: Binding affinity to recombinant N-terminal His6x-tagged human CA14 (20 to 280 residues) catalytic domain expressed in Escherichia coli Rosetta 2 (DE3) by DSF-based fluorescence thermal shift assay
A value of pKd is the negative decimal logarithm of a concentration given in moles per litre.

Cc1cc(S(N)(=O)=O)c(C)cc1N1CC(C(=O)NN)CC1=O (stereo not drawn) = 5.40

## Input Param item = NS(=O)(=O)c1ccc(N2CC(C(=O)O)CC2=O)cc1 (stereo not drawn) ; retrieve measured pKd.
## Output 6.14

## Input Look up pKd: NS(=O)(=O)c1ccc(N2CC(C(=O)N/N=C/c3ccccc3)CC2=O)cc1 (stereo not drawn)
## Output 6.70

## Input Data request, read-out pKd, for Cc1cc(N2CC(C(=O)N/N=C/c3ccccc3)CC2=O)c(Cl)c(C)c1S(N)(=O)=O (stereo not drawn)
## Output 7.92

## Input State the recorded pKd for this entry: Cc1cc(N2CC(C(=O)NN)CC2=O)cc(C)c1S(N)(=O)=O (stereo not drawn)
## Output 5.30

## Input Look at this molecule and give its reported pKd. NNC(=O)C1CC(=O)N(c2ccc(S(N)(=O)=O)cc2)C1 (stereo not drawn)
## Output 6.04

## Input Query: pKd; subject: Cc1cc(N2CC(C(=O)O)CC2=O)cc(C)c1S(N)(=O)=O (stereo not drawn)
## Output 5.49

## Input Entry Cc1cc(N2CC(C(=O)N/N=C/c3ccccc3)CC2=O)cc(C)c1S(N)(=O)=O (stereo not drawn) has what pKd?
## Output 5.70

## Input Find the recorded pKd belonging to COC(=O)C1CC(=O)N(c2cc(C)c(S(N)(=O)=O)cc2C)C1 (stereo not drawn) and report it.
## Output 6.08

## Input Which pKd is listed for Cc1cc(S(N)(=O)=O)c(C)cc1N1CC(C(=O)N/N=C/c2ccccc2)CC1=O (stereo not drawn) ?
## Output 6.33

## Input Query: pKd; subject: COC(=O)C1CC(=O)N(c2ccc(S(N)(=O)=O)cc2)C1 (stereo not drawn)
## Output 7.02

## Input I would be grateful if you could share the reported pKd for Cc1cc(S(N)(=O)=O)c(C)cc1N1CC(C(=O)O)CC1=O (stereo not drawn) .
## Output 5.41

## Input Using the record for Cc1cc(N2CC(C(=O)NN)CC2=O)c(Cl)c(C)c1S(N)(=O)=O (stereo not drawn) , report its pKd.
## Output 7.40

----------
# Measurement Target: Carbonic anhydrase 6 (Homo sapiens)
# Sequence (P23280 whole entry): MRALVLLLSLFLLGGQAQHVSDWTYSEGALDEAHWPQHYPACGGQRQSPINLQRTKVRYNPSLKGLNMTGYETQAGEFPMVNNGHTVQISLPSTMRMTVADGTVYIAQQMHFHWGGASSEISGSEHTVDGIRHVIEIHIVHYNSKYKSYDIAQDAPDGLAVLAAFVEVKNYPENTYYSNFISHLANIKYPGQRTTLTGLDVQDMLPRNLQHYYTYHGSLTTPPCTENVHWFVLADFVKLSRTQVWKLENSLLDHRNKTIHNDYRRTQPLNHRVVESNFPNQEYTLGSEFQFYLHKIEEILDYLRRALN
# Protocol Notes: Binding affinity to recombinant human CA6 by DSF-based fluorescence thermal shift assay
Readout Type: Kd (µM)
Answer format: numeric, µM implied, no suffix.

Recorded results for 3 molecules are shown here.
Cc1cc(N2CC(C(=O)N/N=C/c3ccc(Br)cc3)CC2=O)cc(C)c1S(N)(=O)=O (stereo not given) = 18
Cc1cc(S(N)(=O)=O)c(C)cc1N1CC(C(=O)O)CC1=O (stereo not given) = 22
Cc1cc(N2CC(C(=O)O)CC2=O)cc(C)c1S(N)(=O)=O (stereo not given) = 25

## Input Sample NS(=O)(=O)c1ccc(NC(=O)C2CC(=O)N(c3ccccc3)C2)cc1 (stereo not given) — what was its Kd?
## Output 3.6

## Input Quick check: Kd of Cc1cc(N2CC(C(=O)N/N=C/c3ccc([N+](=O)[O-])cc3)CC2=O)cc(C)c1S(N)(=O)=O (stereo not given) ?
## Output 10

## Input Form field: reported Kd of NS(=O)(=O)c1ccc(NC(=O)C2CC(=O)N(c3ccc(Br)cc3)C2)cc1 (stereo not given)
## Output 17

## Input Please report the recorded Kd for Cc1cc(N2CC(C(=O)NN3CC(C(=O)O)CC3=O)CC2=O)cc(C)c1S(N)(=O)=O (stereo not given) .
## Output 83

## Input Reported Kd, molecule NS(=O)(=O)c1ccc(NC(=O)C2CC(=O)N(c3ccccc3Br)C2)cc1 (stereo not given) : ____
## Output 3.7

## Input Can you share its Kd? I mean this molecule: Cc1cc(S(N)(=O)=O)c(C)cc1N1CC(C(=O)NN)CC1=O (stereo not given)
## Output 24

----------
# Measurement Target: UniProt P43166
# Protocol Notes: Binding affinity to recombinant human CA7 by DSF-based fluorescence thermal shift assay
Readout Type: log10(Kd) (log10 of the value in nM)
Please be aware that the numbers have been log10-transformed from Kd in nM.

Cc1cc(S(N)(=O)=O)c(C)cc1N1CC(C(=O)N/N=C/c2ccccc2)CC1=O (centres undefined) = 3.28
Cc1cc(N2CC(C(=O)N/N=C/c3ccc([N+](=O)[O-])cc3)CC2=O)c(Cl)c(C)c1S(N)(=O)=O (centres undefined) = 1.63
Cc1cc(N2CC(c3n[nH]c(=S)o3)CC2=O)cc(C)c1S(N)(=O)=O (centres undefined) = 4.30
Cc1cc(S(N)(=O)=O)c(C)cc1N1CC(C(=O)N/N=C/c2ccc([N+](=O)[O-])cc2)CC1=O (centres undefined) = 3.11
COc1ccc(/C=N/NC(=O)C2CC(=O)N(c3cc(C)c(S(N)(=O)=O)c(C)c3Cl)C2)cc1 (centres undefined) = 1.20
Cc1cc(C)n(NC(=O)C2CC(=O)N(c3cc(C)c(S(N)(=O)=O)c(C)c3Cl)C2)n1 (centres undefined) = 1.40
COC(=O)C1CC(=O)N(c2cc(C)c(S(N)(=O)=O)c(C)c2Cl)C1 (centres undefined) = 1.11

# input for lookup
## Input log10(Kd) lookup needed for Cc1cc(NCC(CC(=O)O)c2n[nH]c(=S)n2-c2ccccc2)c(Cl)c(C)c1S(N)(=O)=O (centres undefined) , thanks.
## Output 3.89

----------
# Measurement Target: Carbonic anhydrase 2 (Homo sapiens)
# Protocol Notes: Binding affinity to recombinant human CA2 by DSF-based fluorescence thermal shift assay
# label = yes if Kd < 600 nM else no

COC(=O)C1CC(=O)N(c2cc(C)c(S(N)(=O)=O)c(C)c2Cl)C1 (stereo unspecified) = yes
Cc1cc(C)n(NC(=O)C2CC(=O)N(c3cc(C)c(S(N)(=O)=O)c(C)c3)C2)n1 (stereo unspecified) = no
Cc1cc(N2CC(c3n[nH]c(=S)n3-c3ccccc3)CC2=O)cc(C)c1S(N)(=O)=O (stereo unspecified) = no
Cc1cc(N2CC(c3n[nH]c(=S)n3-c3ccccc3)CC2=O)c(Cl)c(C)c1S(N)(=O)=O (stereo unspecified) = yes
NS(=O)(=O)c1ccc(NC(=O)C2CC(=O)N(c3ccc(Br)cc3)C2)cc1 (stereo unspecified) = no

Proceed to the following item.
## Input Dear reviewer, please state whether Cc1cc(N2CC(C(=O)NN)CC2=O)c(Cl)c(C)c1S(N)(=O)=O (stereo unspecified) has Kd strictly beneath 600 nM.
## Output yes

----------
# Measurement Target: Carbonic anhydrase 7 (Homo sapiens)
# Sequence (P43166 whole entry): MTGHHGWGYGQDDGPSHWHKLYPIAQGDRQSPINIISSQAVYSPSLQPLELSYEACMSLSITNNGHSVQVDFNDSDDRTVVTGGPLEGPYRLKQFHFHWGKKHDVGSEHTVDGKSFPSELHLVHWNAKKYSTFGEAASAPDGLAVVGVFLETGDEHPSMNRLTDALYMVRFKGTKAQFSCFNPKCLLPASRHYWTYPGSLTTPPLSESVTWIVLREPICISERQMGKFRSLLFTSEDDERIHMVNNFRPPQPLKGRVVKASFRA
# Protocol Notes: Binding affinity to recombinant human CA7 by DSF-based fluorescence thermal shift assay
Assign labels as follows, please: yes for Kd below 3 µM; no for Kd equal to or exceeding 3 µM.

Past entries and their recorded results:
Cc1cc(N2CC(c3n[nH]c(=S)o3)CC2=O)c(Cl)c(C)c1S(N)(=O)=O (stereo unspecified) = yes
Cc1cc(S(N)(=O)=O)c(C)cc1N1CC(C(=O)O)CC1=O (stereo unspecified) = yes
COC(=O)C1CC(=O)N(c2cc(C)c(S(N)(=O)=O)c(C)c2)C1 (stereo unspecified) = no
COc1ccc(/C=N/NC(=O)C2CC(=O)N(c3cc(C)c(S(N)(=O)=O)c(C)c3)C2)cc1 (stereo unspecified) = no

## Input # TODO verify Kd < 3 µM strictly for this compound: Cc1cc(S(N)(=O)=O)c(C)cc1N1CC(C(=O)NN)CC1=O (stereo unspecified)
## Output no

## Input Answer whether the compound NS(=O)(=O)c1ccc(N2CC(C(=O)N/N=C/c3ccccc3)CC2=O)cc1 (stereo unspecified) has Kd strictly less than 3 µM
## Output yes
